Tested on: resistant Plasmopara viticola strains
Measurement description: Activity against resistant Plasmopara viticola strains on grapevine plants (Riesling)
Assay type: in vivo
Measurement setup: curative treatment (one day after treatment with the harmful fungi); resistant fungi; grapevine (Riesling); final evaluation on day 6
Reported property: diseased leaf area (%)
Kindly provide the numeric value in % only, without the unit symbol.

Per the record, C#CCOc1ccc(CCNC(=O)C(OCC#C)c2ccc(Cl)cc2)cc1OC (racemic) has diseased leaf area of 65

Per the record, "CC(C)OC(=O)N[C@H](C(=O)N[C@H](C)c1nc2ccc(F)cc2s1)C(C)C" has diseased leaf area of 70

Per the record, Cc1ccc(C(C)NC(=O)[C@@H](NC(=O)OC(C)C)C(C)C)cc1 (stereo partly shown) has diseased leaf area of 75

Per the record, "COc1ccc(C(=CC(=O)N2CCOCC2)c2ccc(Cl)cc2)cc1OC" has diseased leaf area of 70
